Test system: MS2 coat protein
Test: apparent KD of MS2 coat protein; designed switch direction (-1 OFF switch, 1 ON switch): -1; higher = weaker reporter binding
Details: Eterna round: R95; input ligand: FMN 200 uM
readout: apparent KD of MS2 coat protein (µM)
Numeric answer only, unit µM assumed.

CAGAAGCAAGGAUAUACAACGGGCCACAGAGCGAGAGGGCAACAUGAGGAUCACCCAUGUAGAAGGUGCGUAAC [Timaina] (puzzle: Exclusion 2)    0.0475

The recorded apparent KD of MS2 coat protein for AGAAAGCAAGGAUAUACGAGGAGAAGGAGGAAAGUUAAAGGACAUGAGGAUCACCCAUGUAGAAGGUGCGAGAA [JR_Exclu2_Sub042] (puzzle: Exclusion 2) is 0.0333

The recorded apparent KD of MS2 coat protein for AAAGAGCUAGGAUAUCGCGACCUUGACAUGAGGAUCACCCAUGUGCCCUCGUAACAACGACGAGAAGGAGCGAAAA [Gelaladied] (puzzle: Exclusion 5) is 0.0362

The recorded apparent KD of MS2 coat protein for GGUUGGCGAGGAUAUACAUGAGGAUCACCCAUGUGAGAGAAAGAAGUGAGAACGAAAAGUAGAAGGCGCUGACG [salish99_ex3_r3_058] (puzzle: Exclusion 3) is 0.0481

The recorded apparent KD of MS2 coat protein for UGUUGGCGAGGAUAUACAUGAGGAUCACCCAUGUGAGAGAAAAAAGUGAGGAAGAAAAGUAGAAGGCGCUGACC [salish99_ex3_r3_042] (puzzle: Exclusion 3) is 0.165

The recorded apparent KD of MS2 coat protein for CAUACUCAAGUGAGGAUAUUGUCUCGGAUACGAAACAAGAAGGCACAUGAGGAUCACCCAUGUAGAGAGUAAAG [EX-4 Malc #30] (puzzle: Brourd's mod of Exclusion 4) is 0.136
